experimental system: Cytochrome P450 1A2 (Homo sapiens) (UniProt P05177)
Sequence (P05177 whole entry, looked up): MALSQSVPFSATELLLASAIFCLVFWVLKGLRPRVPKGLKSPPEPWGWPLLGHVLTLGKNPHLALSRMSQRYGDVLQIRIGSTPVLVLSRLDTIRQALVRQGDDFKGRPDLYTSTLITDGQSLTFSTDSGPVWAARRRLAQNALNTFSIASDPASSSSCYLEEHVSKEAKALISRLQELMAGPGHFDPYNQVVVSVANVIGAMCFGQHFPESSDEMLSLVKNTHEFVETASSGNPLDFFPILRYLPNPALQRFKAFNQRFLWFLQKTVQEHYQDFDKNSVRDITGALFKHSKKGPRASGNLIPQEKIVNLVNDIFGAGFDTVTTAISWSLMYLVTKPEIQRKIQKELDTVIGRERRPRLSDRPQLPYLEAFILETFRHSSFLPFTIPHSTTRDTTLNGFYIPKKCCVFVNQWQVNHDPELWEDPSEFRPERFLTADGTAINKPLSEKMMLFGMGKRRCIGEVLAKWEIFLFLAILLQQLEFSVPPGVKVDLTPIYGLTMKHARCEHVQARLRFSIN
assay summary: p450-cyp1a2 (AID 410)
experimental conditions: recombinant CYP1A2, luciferin-ME demethylation, luminescence; series mostly up to 11.4 µM
Results filed as inconclusive are left out. Active and inactive are the calls of the source. The call rests on the fitted dose curve.
Allowed answers: YES for active, NO for inactive

Completed entries (count: 5):
>>> df
                                   molecule                       experimental_system  label_class
0                              NCCP(=O)(O)O  Cytochrome P450 1A2 (Homo sapiens) (UniProt P05177)           NO
1  Cc1cc[c]([Sb]2[O][C@H]([C@H](O)[C@H](O)C(=O)O)[C@@H](CO)[O]2)cc1  Cytochrome P450 1A2 (Homo sapiens) (UniProt P05177)           NO
2                          O=C(O)[C@H]1CCN1  Cytochrome P450 1A2 (Homo sapiens) (UniProt P05177)           NO
3             Nc1nc(N)c(Cn2ccnc2)c(=O)[nH]1  Cytochrome P450 1A2 (Homo sapiens) (UniProt P05177)           NO
4  N#Cc1cccc(NC(=O)N2CCCC3(CCN(C(=O)Oc4ccccc4)CC3)C2)c1  Cytochrome P450 1A2 (Homo sapiens) (UniProt P05177)          YES

input: Hi, do you know how N[C@H](Cn1cc(I)c(=O)[nH]c1=O)C(=O)O came out in this test?
output: NO

input: Hi, do you know how NCCCN1CCN(c2ccccc2)CC1 came out in this test?
output: NO

input: Hi, do you know how COc1cc2ccccc2c2cc([N+](=O)[O-])oc12 came out in this test?
output: YES

input: Hi, do you know how C[N+]1(C)C2CC[C@H]1CC(OC(=O)[C@@H](CO)c1ccccc1)C2 (some centres undefined) came out in this test?
output: NO

----------
assay summary: qHTS assay for small molecule agonists of retinoid X receptor alpha signaling (AID 588544)
experimental conditions: HEK293T RXRa-UAS-bla, beta-lactamase reporter, 18 h; 530 nm emission
Description: NIH Chemical Genomics Center [NCGC] U.S. Environmental Protection Agency [EPA] National Institutes of Environmental Health Sciences [NIEHS] National Toxicology Program [NTP] NCGC Assay Overview The Retinoid X receptor (RXR), a nuclear hormone receptor is expressed in liver, spleen, placenta, epidermis, central nervous system. […]
Inconclusive results are not listed.
reported metric: max response (%)
Value expressed in %; do not type the unit.

In the examples that follow, each entry is paired with its recorded max response.
>>> print(df.to_string())
                    smiles_input  reported_metric  number
0        C=CCc1cc(OC)c2c(c1)OCO2     max response   -17.2
1                    Cc1cnc[nH]1     max response    2.59
2             O=Cc1ccc2c(c1)OCO2     max response    19.3
3                Nc1ccc2ccccc2c1     max response   -8.86
4  c1ccc(P(c2ccccc2)c2ccccc2)cc1     max response    22.6
5         Nc1ncc([N+](=O)[O-])s1     max response   0.224

With those in mind, consider the next compound.
input: I have this compound here, O=[N+]([O-])c1ccccc1-c1ccccc1 , and I need its recorded max response.
output: -6.95

----------
experimental system: Peroxisome proliferator-activated receptor delta (Homo sapiens) (UniProt Q03181)
Sequence (Q03181 whole entry, looked up): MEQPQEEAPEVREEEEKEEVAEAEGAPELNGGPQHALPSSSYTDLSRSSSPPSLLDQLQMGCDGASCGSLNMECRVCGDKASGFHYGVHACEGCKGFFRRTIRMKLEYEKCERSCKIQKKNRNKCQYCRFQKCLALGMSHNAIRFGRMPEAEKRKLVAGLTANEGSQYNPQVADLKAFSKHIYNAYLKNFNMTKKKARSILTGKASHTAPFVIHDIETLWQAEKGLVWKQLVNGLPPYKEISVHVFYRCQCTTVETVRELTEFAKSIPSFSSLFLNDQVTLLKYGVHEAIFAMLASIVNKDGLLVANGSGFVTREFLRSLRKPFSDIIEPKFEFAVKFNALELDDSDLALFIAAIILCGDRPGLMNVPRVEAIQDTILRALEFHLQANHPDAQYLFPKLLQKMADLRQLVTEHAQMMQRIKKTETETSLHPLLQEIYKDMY
assay summary: qHTS assay for small molecule antagonists of peroxisome proliferator-activated receptor delta signaling (AID 588535)
experimental conditions: HEK293T PPARd-UAS-bla, beta-lactamase FRET ratio, 18 h; series mostly up to 76.7 µM
Inconclusive results are not listed. Calls of active or inactive are those of the source. Calls follow the shape of the dose curve; as a rule, active = well fitted inhibition curve with a large enough effect in the signal ratio, with a control signal flat (not every such curve was filed as active); inconclusive = small, poorly fitted or top-dose-only effect, or effect the other way, or a change in a side signal; inactive = no such curve, though single readings can be large or run the other way; the % refers to the signal ratio.
reported metric: outcome

>>> print(df.to_string())
                                  compound    result
0  C(CCOCC1CO1)COCC1CO1 (stereo not drawn)  inactive
1         O=[N+]([O-])c1cc(Cl)c(Cl)c(Cl)c1  inactive
2                                   ClCCBr  inactive

----------
assay summary: qHTS assay for small molecule disruptors of the mitochondrial membrane potential - 5 hr assay (AID 651755); further: nearly all actives have a fitted effect of over 40% in size
experimental conditions: JC-1-type ratio dye; series mostly up to 92.2 µM
Inconclusive results are not listed. Active and inactive are the calls of the source. Calls follow the shape of the full dose curve.
Allowed answers: class 1 = active, class 0 = inactive

Completed entries (count: 3):
>>> print(df.to_string())
                                 compound  label_class
0                   O=[N+]([O-])c1ccccc1O      class 0
1  CCC(Cl)[N+](=O)[O-] (stereo not given)      class 0
2       CC(C)[C@]12CC(=O)[C@H](C)[C@H]1C2      class 0

input: Hi, do you know how CC(C)OS(C)(=O)=O came out in this test?
output: class 0

input: Hi, do you know how Nc1cc(Cl)cc(C(=O)O)c1Cl came out in this test?
output: class 0

input: Hi, do you know how ClC(Br)Br came out in this test?
output: class 0

input: Hi, do you know how ClCCCCl came out in this test?
output: class 0

input: Hi, do you know how Nn1cnnc1 came out in this test?
output: class 0

input: Hi, do you know how Cc1ccc(N)cc1N came out in this test?
output: class 1

input: Hi, do you know how Cl/C=C/CCl came out in this test?
output: class 0

input: Hi, do you know how CN(C)N=O came out in this test?
output: class 0

input: Hi, do you know how ClC=CCl came out in this test?
output: class 0

input: Hi, do you know how Cc1cccc(N)c1C came out in this test?
output: class 0

input: Hi, do you know how C=C(Cl)CCl came out in this test?
output: class 0

input: Hi, do you know how c1ccoc1 came out in this test?
output: class 0

----------
assay summary: AP1 Signaling Pathway (AID 357);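 further: ME-180 reporter cells stimulated with EGF at its EC50 level; on the % scale 0 is the no-effect control and ±100 the full control effect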
experimental conditions: ME-180 (cervical carcinoma) AP-1-bla reporter, EGF-induced, beta-lactamase ratio, 5 h; at 7.69 µM (top of the series) unless noted
Records with an inconclusive call do not appear. Active and inactive are the calls of the source. Calls follow the shape of the dose curve; as a rule, active = well fitted curve in either direction with a large enough effect (not every such curve was filed as active); inconclusive = small, poorly fitted or top-dose-only effect, or another doubt; inactive = flat fitted curve, though single readings scatter.
reported metric: activity change, negative = inhibition

In [3]: df
Out[3]:
                                   compound                         reported_metric             result
0       N[C@@H](Cc1cc(Br)c(O)c(Br)c1)C(=O)O  activity change, negative = inhibition  -11.9% (inactive)
1  COc1cc2c(cc1OC)[C@@]13CCN4CC5=CCO[C@H](CC(=O)O)[C@@H]([C@H]1N2)[C@H]5C[C@H]43  activity change, negative = inhibition  -1.41% (inactive)
2  C[N+]1(C)C2CC[C@H]1CC(OC(=O)[C@@H](CO)c1ccccc1)C2 (stereo partly drawn)  activity change, negative = inhibition      4% (inactive)
3  O=P(O)(O)c1ccccc1 (tested in a mixture with another compound)  activity change, negative = inhibition   2.76% (inactive)
4  CCOC(=O)[C@@H]1[C@@H]2c3ccccc3-c3ccccc3[C@H]2C[C@H]1O  activity change, negative = inhibition  -11.4% (inactive)
5                          NC(N)=NCCN=C(N)N  activity change, negative = inhibition   1.56% (inactive)

input: I have this compound here, NCCCN1CCN(c2ccccc2)CC1 , and I need its recorded activity change, negative = inhibition.
output: 2.17% (inactive)

input: I have this compound here, C[C@@H]1Cc2cc3c(cc2C(c2ccc(N)cc2)=NN1)OCO3 , and I need its recorded activity change, negative = inhibition.
output: -10.9% [at 38 µM] (inactive)

input: I have this compound here, COC(=O)[C@H]1C(=O)[C@H](C(=O)OC)[C@@H]2CC[C@H]1N2C , and I need its recorded activity change, negative = inhibition.
output: 12.9% (inactive)

input: I have this compound here, N[C@H](Cn1oc(=O)[nH]c1=O)C(=O)O , and I need its recorded activity change, negative = inhibition.
output: 0.495% [at 38 µM] (inactive)

input: I have this compound here, O=[As](O)(O)c1ccc2nc3cc([As](=O)(O)O)ccc3nc2c1 , and I need its recorded activity change, negative = inhibition.
output: 0.372% (inactive)

input: I have this compound here, O=P(O)(OP(=O)(O)c1ccccc1)c1ccccc1 (tested in a mixture with another compound) , and I need its recorded activity change, negative = inhibition.
output: -8.54% (inactive)

input: I have this compound here, O=C(O)[C@H](Cc1cnc[nH]1)N1C(=O)c2ccccc2C1=O , and I need its recorded activity change, negative = inhibition.
output: -8.47% (inactive)

input: I have this compound here, CN(C)[C@@H]1C(=O)C(C(N)=O)=C(O)[C@]2(O)C(=O)C3=C(O)c4c(O)cccc4[C@](C)(O)[C@H]3C[C@@H]12 , and I need its recorded activity change, negative = inhibition.
output: -8.78% (inactive)

Ref: PubChem BioAssay (NCATS)
